Before we begin, note that these pIC50 values for Cytochrome P450 3A4 (Homo sapiens) originate from several publications.
pIC50: −log10 of the molar value.

Some compounds with known pIC50 results, for comparison:
CS(=O)(=O)CC(=O)Nc1c(-c2ccc(F)cc2)nn2c1C(=O)N[C@@]1(CCOc3cc(OCC(F)(F)F)ccc31)C2: < 4.70
C[C@H](c1ccc(F)cc1)n1cncc1CN1CCN(S(=O)(=O)c2cnc(N3CC[C@@H](N4CCOCC4)[C@H](F)C3)s2)CC1: 8.39
C[C@H](c1ccc(F)cc1)n1cncc1CC1CCN(S(=O)(=O)c2cnc(N3CCN(C)CC3)s2)CC1: 8.96
Cc1cc(Nc2ncc(Cl)c(Nc3cn(C)nc3S(=O)(=O)C(C)C)n2)c(OC2CC2)cc1C1CC(C)N(C)C(C)C1 (stereo not shown): < 5.00
CCOc1cc2c(cc1OC)-c1c/c(=N\c3c(C)cc(C)cc3C)n(CCNC(=O)c3[nH]nnc3OC)c(=O)n1CC2: 4.80

Form entry - test system: Cytochrome P450 3A4 (Homo sapiens); read-out: pIC50; compound: CNC(=O)c1cc(COc2nnc(Nc3ccc(OC)cc3)c3ccoc23)ccn1
5.74

Missing value: pIC50, Cytochrome P450 3A4 (Homo sapiens), entry CO[C@H]1[C@@H](C)SC(N)=N[C@]1(C)c1cc(NC(=O)c2ccc(F)cn2)ccc1F . Fill in?
≤ 4.70

Request body: readout pIC50, system Cytochrome P450 3A4 (Homo sapiens), query C[C@@H](c1ccccc1-c1ccc(F)cc1)n1cncc1C(=O)N1CCC[C@H]2OCCN[C@@H]2C1 . Return the value.
8.49

Which measured pIC50 belongs to COc1cc2ccc(C(C(C)C)n3ncnn3)cc2cc1OC (stereo not shown) , tested on Cytochrome P450 3A4 (Homo sapiens)?
< 3.70

Param readout = pIC50; param system = Cytochrome P450 3A4 (Homo sapiens); param query = CN(CCc1c[nH]c2ccccc12)C(=O)c1ccc(-c2ccccc2)cc1 ; response: value
< 4.70

Fill in the recorded pIC50 for this compound, with Cytochrome P450 3A4 (Homo sapiens) as test system: O=C(Nc1ccc(C(F)(F)F)c(Cl)c1)c1cc(F)cnc1NCc1ccnc2[nH]ncc12
< 4.70

So what pIC50 did C=CC(=O)N1CCN(c2c(C#N)c(OC[C@@H]3CCCN3C)nc3c(F)c(-c4ccc(F)c5sc(N)nc45)c(Cl)cc23)CC1 get with Cytochrome P450 3A4 (Homo sapiens)?
< 5.00

Lab request: please report pIC50 under test system Cytochrome P450 3A4 (Homo sapiens) for CNC(=O)Nc1cc2n(n1)CCN2c1cc(C(=O)N2CCOCC2)cc(-c2ccc(N)nc2)c1
< 4.70

Tell me reported pIC50 for C[C@@H]1CN(S(=O)(=O)c2ccc(Cl)cc2)C[C@@H]1n1nc(CC(=O)O)c2ccc(F)cc21 , tested with Cytochrome P450 3A4 (Homo sapiens).
< 4.70

Reported pIC50 for Cytochrome P450 3A4 (Homo sapiens), given C[C@H](c1ccc(F)cc1)n1cncc1C1CCCC2CN(S(=O)(=O)c3cnc(Nc4ccccn4)s3)CCN21 (single isomer, unassigned) ?
8.60

Lab note: need pIC50 for CCn1nc(C2=NCCN2)c2cc(Cl)ccc21 on Cytochrome P450 3A4 (Homo sapiens), anyone have it?
< 5.00
